# protocol summary: Primary redox qHTS assay for identification of artifact compounds. (AID 1845223)
# measurement setup: Amplex Red/HRP redox cycling with DTT, fluorescence; series mostly up to 53.8 µM
Results filed as inconclusive are left out. Activity calls are given as the source filed them. Calls come from the whole dose curve; as a rule, active = well fitted activation curve with a large enough effect; inconclusive = small, poorly fitted or top-dose-only effect; inactive = flat fitted curve, though single readings scatter.
assay metric: redox activity (% of DA3003)

Observe how each entry below is paired with its result.
{"compound": "Cc1ccc(OC[C@H](O)[C@H](C)NC(C)C)c2c1CCC2", "assay metric": "redox activity (% of DA3003)", "obs value": "inactive"}
{"compound": "Cn1cc(-c2cnn3c(N)c(Br)c([C@@H]4CCCNC4)nc23)cn1", "assay metric": "redox activity (% of DA3003)", "obs value": "inactive"}
{"compound": "CCCCc1c(-c2ccc(OC)cc2)[nH]c2nccnc12", "assay metric": "redox activity (% of DA3003)", "obs value": "inactive"}
{"compound": "Nc1nc(NC2CC2)cc(-c2cccc(Cl)c2Cl)n1", "assay metric": "redox activity (% of DA3003)", "obs value": "inactive"}
{"compound": "CC(C)CCNc1ncccc1C(=O)N1CCN(Cc2ccccc2)CC1", "assay metric": "redox activity (% of DA3003)", "obs value": "inactive"}

[ask] Which redox activity (% of DA3003) value is on record for CCCc1cc(C)[nH]c(=O)c1CNC(=O)c1cc(-c2ccc(N3CCN(C(C)C)CC3)nc2)cc2c1cnn2C(C)C ?
[reply] inactive

Reference source for all entries: PubChem BioAssay (NCATS)
